assay.remarks: NCI Yeast Anticancer Drug Screen. Data for the rad50 strain (AID 155);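 note: 0% = growth of vehicle-only cultures of the same strain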
condition.info: S. cerevisiae rad50 strain growth inhibition; at 50.0 µM; stronger effect = higher value
Protocol: Growth inhibition of yeast strains with defined genetic alterations is measured as a screen for potential anti-cancer activity. Selected strains with alterations in DNA damage repair or cell cycle control were exposed to compounds and growth inhibition was measured relative to vehicle treated controls. The strain used in this assay is rad50
The panel holds about 79,000 compounds, 15% with a hit somewhere; the sample as a whole holds those more often. Active and inactive are the calls of the source. Cut-off read from the data, not from the text of the source: active = growth inhibition above about 70%; inactive = the rest.
observed.property: growth inhibition

Worked set:
molecule: COC(=O)/C=C/c1c2ccccc2cc2ccccc12
growth inhibition: 14.8% (inactive)
//
molecule: CCOC(=O)c1sc2[n+](c1C)C(=O)/C(=C/c1ccc([N+](=O)[O-])cc1)S2
growth inhibition: 95.5% (active)
//
molecule: O=C(OCCC1CCCCC1)c1cc([N+](=O)[O-])cc([N+](=O)[O-])c1
growth inhibition: 83.1% (active)
//
molecule: COC(=O)C1(Cc2ccccc2C)Cc2ccc(C)cc2C1=O (stereo not given)
growth inhibition: 49.3% (inactive)

Let us move to another entry and its growth inhibition.
Q. Field request: growth inhibition | item: "CC(C)(C)c1cc(Cl)c(O)c(Cc2cc(C(C)(C)C)cc(Cl)c2O)c1"
A. 67% (inactive)

====

assay.remarks: NCI Yeast Anticancer Drug Screen. Data for the mlh1 rad18 strain (AID 175)
condition.info: S. cerevisiae mlh1 rad18 strain growth inhibition; at 50.0 µM (retest, dose inferred, filed as 5.0); stronger effect = higher value
The panel holds about 79,000 compounds, 15% with a hit somewhere; the sample as a whole holds those more often.
Assign Satisfied whenever growth inhibition does not fall below 70%; assign Not satisfied whenever it does.

compound: Cc1ccc(NCCN(C)C)c2c(=O)c3ccc(O)cc3sc12
answer.label: Satisfied

Alright, here's another compound for you.
Q. Has "CCc1c(O)sc2c(c1=O)C(=NCC(C)C)CC(C)(C)N2" a recorded growth inhibition greater than or equal to 70%?
A. Not satisfied

====

assay.remarks: NCI Yeast Anticancer Drug Screen. Data for the rad50 strain (AID 155);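 note: 0% = growth of vehicle-only cultures of the same strain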
condition.info: S. cerevisiae rad50 strain growth inhibition; at 50.0 µM; stronger effect = higher value
Experimental: Growth inhibition of yeast strains with defined genetic alterations is measured as a screen for potential anti-cancer activity. Selected strains with alterations in DNA damage repair or cell cycle control were exposed to compounds and growth inhibition was measured relative to vehicle treated controls. The strain used in this assay is rad50
This is part of a sample that, as a whole, favours compounds with a hit. Of some 79,000 tested, about 15% had one in any assay. Where a SMILES comes first, the peptide text is derived from it. [ ]: non-standard residue; d: D form. The star is where a group is joined. Phe(2-OMe) = COc1ccccc1C[CH](N)C(=O)O; Cbz = O=C(OCc1ccccc1)*; OBn = c1ccc(CO*)cc1
Assign fulfilled whenever growth inhibition does not fall below 90%; assign not fulfilled whenever it does.

Q. Has CC(C)(C)SC(=O)C1(C)OC1c1ccc([N+](=O)[O-])cc1 (stereo unspecified) a recorded growth inhibition greater than or equal to 90%?
A. not fulfilled

Q. Has "O=c1c2ccccc2sc2c([N+](=O)[O-])ccc(NCCNCCO)c12" a recorded growth inhibition greater than or equal to 90%?
A. not fulfilled

Q. Has CC12C(=O)N(CC(=O)O)C(=O)C1(C)C1c3ccccc3C2c2ccc3ccccc3c21 (stereo unspecified) a recorded growth inhibition greater than or equal to 90%?
A. fulfilled

Q. Has CN1C(=O)C(Cl)(C(Cl)(Cl)S(=O)(=O)O)C(=O)c2ccccc21 (stereo unspecified) a recorded growth inhibition greater than or equal to 90%?
A. not fulfilled

Q. Has "O=C(C(/C=N/C(=S)NCc1ccccc1)=C(/O)c1ccccc1)c1ccccc1" a recorded growth inhibition greater than or equal to 90%?
A. fulfilled

Q. Has "Cc1cc(N2C(=O)CSC2=S)c([N+](=O)[O-])cc1C" a recorded growth inhibition greater than or equal to 90%?
A. fulfilled

Q. Has CCOC(=O)C1CC2(CCC1N)c1ccccc1-c1ccccc12 (stereo unspecified) a recorded growth inhibition greater than or equal to 90%?
A. not fulfilled

Q. Has "COC(=O)c1ccc2ccccc2c1" a recorded growth inhibition greater than or equal to 90%?
A. not fulfilled

Q. Has COC(=O)C(Cc1ccccc1OC)NC(=O)C(CC(=O)OCc1ccccc1)NC(=O)OCc1ccccc1 (stereo unspecified) (Cbz-Asp(OBn)-[Phe(2-OMe)]-OMe; configuration not given here) a recorded growth inhibition greater than or equal to 90%?
A. not fulfilled

Q. Has "CCC[CH2][Sn]([CH2]CCC)([O]C(=O)c1cc(F)ccc1F)[O][Sn]([CH2]CCC)([CH2]CCC)[O]C(=O)c1cc(F)ccc1F" a recorded growth inhibition greater than or equal to 90%?
A. not fulfilled

Q. Has "CN(NS(=O)(=O)c1cccc([N+](=O)[O-])c1)c1ccccc1" a recorded growth inhibition greater than or equal to 90%?
A. fulfilled

Q. Has "COc1ccc(CCNC(=S)/N=C\C(C(=O)c2ccccc2)=C(\O)c2ccccc2)cc1OC" a recorded growth inhibition greater than or equal to 90%?
A. fulfilled

Q. Has "C[n+]1c(/C=C/c2ccccc2Cl)ccc2ccccc21" a recorded growth inhibition greater than or equal to 90%?
A. fulfilled

Q. Has "O=C(C(/C=N\C(=S)Nc1ccccc1Cl)=C(/O)c1ccccc1)c1ccccc1" a recorded growth inhibition greater than or equal to 90%?
A. fulfilled

Q. Has "Cc1cc(N=Nc2ccccc2)ccc1O" a recorded growth inhibition greater than or equal to 90%?
A. fulfilled

====

assay.remarks: NCI Yeast Anticancer Drug Screen. Data for the rad50 strain (AID 155);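 note: 0% = growth of vehicle-only cultures of the same strain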
condition.info: S. cerevisiae rad50 strain growth inhibition; at 50.0 µM (retest, dose inferred, filed as 5.0)
The panel holds about 79,000 compounds, 15% with a hit somewhere; the sample as a whole holds those more often. Activity calls are given as the source filed them. No stated cut-off is given here; in the data, active means growth inhibition above about 70%; inactive means the rest.
Just give me one of these, please: active, inactive

See these solved cases before continuing.
compound: S=C(CSc1ccccc1)Nc1cccc2ccccc12
answer.label: active
--
compound: COc1ncnc2nc(SC)[nH]c12
answer.label: inactive
--
compound: COc1ccc(/C=C/c2ccc3ccccc3n2)cc1OC
answer.label: active
--
compound: O=C(CC(=O)c1cc(Cl)ccc1O)c1cccnc1
answer.label: active
--
compound: COC(=O)c1nc(=S)[nH]c(C(=O)OC)c1C(=O)C(C)(C)C
answer.label: inactive

Q. # outcome recorded in this test, key = CCOC(=O)C1CCN(Cc2ccccc2)CC1=O (configuration not stated)
A. active

Q. # outcome recorded in this test, key = "Cc1c(N=Nc2ccccc2Cl)c(-c2ccccc2)nn1C(=S)S"
A. active

====

Each record here notes measured growth inhibition.
assay.remarks: NCI Yeast Anticancer Drug Screen. Data for the rad50 strain (AID 155);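 note: 0% = growth of vehicle-only cultures of the same strain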
condition.info: S. cerevisiae rad50 strain growth inhibition; at 50.0 µM; stronger effect = higher value
This is part of a sample that, as a whole, favours compounds with a hit. Of some 79,000 tested, about 15% had one in any assay.
The response must be a number in % with no trailing unit.

Worked set:
molecule: O=C(OCc1ccccc1CN1CCOCC1)c1ccc(Br)cc1
growth inhibition [%]: 77.3

molecule: O=C1OC(=O)c2cccc3cccc1c23
growth inhibition [%]: 98.8

molecule: CSC(=S)SC(SC)S(C)(=O)=O (configuration not stated)
growth inhibition [%]: 98.5

molecule: COc1ccc(C=Nc2ccccc2O)cc1
growth inhibition [%]: 59.1

molecule: Cc1ccc(S(=O)(=O)Nc2ccccc2SSc2ccccc2NS(=O)(=O)c2ccc(C)cc2)cc1
growth inhibition [%]: 57.5

Q. Field request: growth inhibition | item: "Cc1cc(C)nc(NS(=O)(=O)c2ccc(Nc3c4ccccc4nc4c(C(=O)NC(CO)(CO)CO)cccc34)cc2)n1"
A. 81.8

====

assay.remarks: NCI Yeast Anticancer Drug Screen. Data for the sgs1 mgt1 strain (AID 161);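 note: 0% = growth of cultures given vehicle only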
condition.info: S. cerevisiae sgs1 mgt1 strain, at 50.0 µM (retest, dose inferred, filed as 5.0)
About 79,000 compounds went through this panel and 15% of them were active in at least one assay; those are over-represented in the sample as a whole. Calls of active or inactive are those of the source. Rule as the data show it: active = growth inhibition above about 70%; inactive = the rest.
Just give me one of these, please: Y (active), N (inactive)

See these solved cases before continuing.
compound: Cc1nc2[nH]cc(C)c2c(=O)[nH]1
answer.label: N

compound: O=C1c2cc(Br)ccc2NC1(c1c[nH]c2ccccc12)c1c[nH]c2ccccc12
answer.label: Y

compound: COc1ccc(Cl)c(-c2cc(OC)c(N=N/C(=N/Nc3ccc([N+](=O)[O-])cc3)c3ccc([N+](=O)[O-])cc3)cc2Cl)c1
answer.label: N

compound: Cc1ccc(S(=O)(=O)NNC(=O)c2sc(-c3nc(C)c(C(=O)NNS(=O)(=O)c4ccc(C)cc4)s3)nc2C)cc1
answer.label: Y

compound: CCOC(=O)C[n+]1c(C)sc2ccccc21
answer.label: N

compound: O=C1c2cc([N+](=O)[O-])cc3cc([N+](=O)[O-])cc(c23)C(=O)N1CCCNCCNCCCN1C(=O)c2cc([N+](=O)[O-])cc3cc([N+](=O)[O-])cc(c23)C1=O
answer.label: Y

compound: C/C(=N\NC(=S)N1CCCCCC1)c1ccccn1
answer.label: Y

compound: Cc1cc2nc(-c3ccccc3[N+](=O)[O-])[nH]c2cc1C
answer.label: N

Alright, here's another compound for you.
Q. # outcome recorded in this test, key = "CCCCCCCCNS(=O)(=O)c1ccc(N)cc1"
A. N
